TGI for assorted compounds
system: ACHN renal; experiment: NCI tumour cell line growth inhibition, 48 h
measured.metric: TGI

In [3]: df
Out[3]:
                                    compound  meas_value
 0  CSc1nc(C)cc(=O)n1C1OC(COC(C)=O)C(OC(C)=O)C(OC(C)=O)C1OC(C)=O (stereo not given)    > 100 µM
 1  CC(=O)Oc1ccc(/C=C/C(=O)NCCOC(=O)/C=C/c2ccc(OC(C)=O)c(OC(C)=O)c2)cc1OC(C)=O    > 100 µM
 2  Cc1ccc(C(=O)N2C/C(=C/c3ccccc3)C(=O)/C(=C/c3ccccc3)C2)cc1   > 67.1 µM
 3  CC(=O)N1c2ccccc2[C@H]2CCc3c([nH]c4ccccc34)[C@H]21    > 100 µM
 4               Cc1ccc(C=C(C(=O)O)C(=O)O)o1    > 100 µM
 5                         OC1CSCCSCCCSCCSC1    > 100 µM
 6              O=c1[nH]nc(Cc2ccccc2)n1C1CC1    > 100 µM
 7  Nc1n[nH]c2ccc([C@@H]3Nc4c(F)cc5[nH]ncc5c4[C@H]4C5CCC(C5)[C@@H]34)cc12 (stereo not given in full)   > 64.7 µM
 8  COc1cccc(/C=C2/S/C(=N/Nc3nc(C)c(C(C)=O)s3)NC2=O)c1O     51.6 µM
 9            CC(=O)c1c(O)c2c([nH]c1=O)CCCC2    > 100 µM
10                 Nc1ncc(Sc2ccccc2C(=O)O)s1    > 100 µM
11  Fc1ccc(C(OCCN2CC3CC2CN3)c2ccc(F)cc2)cc1 (stereo not given)    > 100 µM
12  Cc1csc(CCC(N)C(=O)O)n1 (stereo not given)    > 100 µM
13  Cn1c(CC(O)c2nc3ccccc3n2C)nc2ccccc21 (stereo not given)   > 33.9 µM
14          Cc1ccc2oc3c(ccc(=O)n3C)c(=O)c2c1    > 100 µM
15  Clc1ccc(Cn2cc(/C=N/n3cnnc3)c3ccccc32)cc1    > 100 µM
16  CCc1c(C#N)c(SC(C(N)=O)c2ccccc2)nc(N2CCC(N)CC2)c1C#N (stereo not given)     38.8 µM
17  CCOC(=O)C1=C(C)N(Cc2ccc(Cl)cc2Cl)[C@]2(C#N)C(O)=C(Cl)C(Cl)=C(O)[C@]12C#N    > 100 µM
18  Oc1ccc(-c2[nH]c3ccccc3c2-c2nc3ccccc3o2)cc1     14.9 µM
19     COC(=O)c1cc2ccccc2c2nc3ccccc3c(Cl)c12    > 100 µM

###

tested on: NCI/ADR-RES ovarian; assay: NCI tumour cell line growth inhibition, 48 h
TGI for assorted compounds

compound	system.tested	TGI
CC(C)(CC1(C)NC(=O)NC1=O)OCc1ccccc1 (centres undefined)	NCI/ADR-RES ovarian	> 100 µM
Cc1cc(/N=C/c2ccc(Cl)cc2)n(-c2ccccc2)n1	NCI/ADR-RES ovarian	> 100 µM
COc1cc(S(=O)(=O)Nc2ccc(-c3csc(/N=C\c4cccs4)n3)cc2)ccc1Cl	NCI/ADR-RES ovarian	> 100 µM
COCCOCCOCCC(=O)NC1CC2CCC1(C)C2(C)C (centres undefined)	NCI/ADR-RES ovarian	> 100 µM
O=C1C2C(C(=O)N1CC[Se][Se]CCN1C(=O)C3C(C1=O)[C@H]1C=C[C@@H]3C1)[C@H]1C=C[C@@H]2C1 (some centres undefined)	NCI/ADR-RES ovarian	3.54 µM
CN(c1ccc(NC(=O)NCCN2CCOCC2)cc1)c1ccnc(Nc2ccc(CS(C)(=O)=O)cc2)n1	NCI/ADR-RES ovarian	> 25 µM
NCC(Cc1ccccc1)P(=O)(O)O (centres undefined)	NCI/ADR-RES ovarian	> 100 µM
Cc1cc(OC(=O)Nc2ccc(Cl)cc2)ccc1C(=S)Nc1ccccc1	NCI/ADR-RES ovarian	> 100 µM
COC(=O)c1ccccc1/C=C1\Cc2ccc3ccccc3c2C1C (centres undefined)	NCI/ADR-RES ovarian	> 100 µM
Cc1cc(C)nc(NC(=S)Nc2ccc(Cl)cc2)c1	NCI/ADR-RES ovarian	> 100 µM
CC(=O)OC1CC[C@@]2(C)C(=CC[C@@H]3[C@@H]2CC[C@]2(C)C(OC(C)=O)[C@H](n4ccnc4)C[C@@H]32)C1 (some centres undefined)	NCI/ADR-RES ovarian	> 100 µM
O=c1[nH]c(=S)[nH]c2c(C3OC(CO)C(O)C3O)nsc12 (centres undefined)	NCI/ADR-RES ovarian	> 100 µM
O=C1c2ccccc2-c2c1c1ccc([N+](=O)[O-])cc1c(=O)n2CCCCl	NCI/ADR-RES ovarian	> 100 µM
Cc1ccccc1CNc1c2ccccc2nc2ccccc12	NCI/ADR-RES ovarian	6.16 µM
CCN(CC)Cc1ccc(Nc2c3ccccc3nc3ccccc23)cc1	NCI/ADR-RES ovarian	22.4 µM
C=CC[PH+](c1ccccc1)c1ccccc1.C=CC[PH+](c1ccccc1)c1ccccc1.[Pt+2].[S-]c1ncccn1.[S-]c1ncccn1	NCI/ADR-RES ovarian	> 100 µM
Nc1c(C(=O)c2ccccc2)nnc2ccccc12	NCI/ADR-RES ovarian	64.6 µM
N#C[C@H](C(=O)c1ccccc1F)c1nc2ccccc2[nH]1	NCI/ADR-RES ovarian	> 100 µM
CCCCOCCOCCOC1=C(Cl)C(=O)c2c(O)ccc(O)c2C1=O	NCI/ADR-RES ovarian	7.49 µM
CCOC(=O)C1=C(C)N(CC(C)C)C2(O)C(OC)CC(=O)C3C(=O)N(c4ccccc4)C(=O)C132 (centres undefined)	NCI/ADR-RES ovarian	> 100 µM
CC(C)=NNc1ncnc2nc[nH]c12	NCI/ADR-RES ovarian	> 100 µM
O=C(O)Cc1ccc(Oc2nc3ccccc3nc2-c2ccccc2)cc1	NCI/ADR-RES ovarian	> 100 µM
CC(=O)OC1COC(Oc2c(C)c3c4c(c2O)[C@@H](C)CC[C@@H]4[C@@H](C)C[C@H]3C=C(C)C)C(O)C1O (some centres undefined)	NCI/ADR-RES ovarian	31.3 µM
Cc1ccc(O)cc1Nc1ccnc2cc(-c3ccccn3)ccc12	NCI/ADR-RES ovarian	15.3 µM
Nc1ncc(Sc2ccccc2C(=O)O)s1	NCI/ADR-RES ovarian	> 100 µM
CCOC(=O)c1cc2cc(OCc3ccccc3)ccc2[nH]1	NCI/ADR-RES ovarian	> 100 µM
O=C([O-])C1([n+]2c(-c3ccccc3)cc(-c3ccccc3)cc2-c2ccccc2)CC1	NCI/ADR-RES ovarian	> 100 µM
CCOc1cc(/C=C/C(=O)CC(=O)/C=C/c2ccc(OC(=O)CNCCN(CC)CC)c(OCC)c2)ccc1OC(=O)CNCCN(CC)CC	NCI/ADR-RES ovarian	24.1 µM
COc1ncc2cc1NS(=O)(=O)c1cccc(c1)C(=O)NCC1=CC=C(S1)c1ncnc3c1SC2=C3C	NCI/ADR-RES ovarian	9.63 µM
O=S(=O)(NCCCNc1nccc(-c2c(-c3cccc(F)c3)nc3occn23)n1)c1cccc2ccccc12	NCI/ADR-RES ovarian	> 100 µM
CC(=O)O[C@H]1C[C@H]2[C@@H]([C@H](OC(C)=O)C[C@@H]3CC4(CC[C@@]32C)OOC2(CCCCC2)OO4)[C@@H]2CC[C@H]([C@H](C)CCC(=O)O)[C@@]12C	NCI/ADR-RES ovarian	19 µM
O=C1CC(=O)NC(=NN2C(=O)/C(=C/c3ccc(Cl)cc3)N=C2c2ccccc2)N1	NCI/ADR-RES ovarian	31.8 µM
CC(C)CCCC(C)[C@H]1CCC2[C@@H]3CCC4Cc5nc6c(nc5C[C@]4(C)C3CC[C@@]21C)CC1CC[C@@H]2C(CC[C@@]3(C)C2CC[C@@H]3O)[C@@]1(C)C6 (some centres undefined)	NCI/ADR-RES ovarian	> 100 µM
CCc1c(C#N)c(SC(C(N)=O)c2ccccc2)nc(N2CCC(N)CC2)c1C#N (centres undefined)	NCI/ADR-RES ovarian	> 100 µM
O=CC(O)C(O)C(OC1OC(CO)C(O)C(O)C1O)C(O)CO (centres undefined) (tested in a mixture with another compound)	NCI/ADR-RES ovarian	> 100 µM
Cn1cnnc1SC(F)(F)c1nc2ccccc2o1	NCI/ADR-RES ovarian	> 100 µM
CCOP(=O)(/C=C/n1cnc2c(=O)n(C(C)=O)c(N)nc21)OCC	NCI/ADR-RES ovarian	> 100 µM
COc1cccc(/C=C2/S/C(=N/Nc3nc(C)c(C(C)=O)s3)NC2=O)c1O	NCI/ADR-RES ovarian	> 100 µM
NC(N)=N/N=C\c1c(-c2ccccc2)nc2sccn12	NCI/ADR-RES ovarian	34.9 µM
